B1: Pistol ribozyme (parent)
chain: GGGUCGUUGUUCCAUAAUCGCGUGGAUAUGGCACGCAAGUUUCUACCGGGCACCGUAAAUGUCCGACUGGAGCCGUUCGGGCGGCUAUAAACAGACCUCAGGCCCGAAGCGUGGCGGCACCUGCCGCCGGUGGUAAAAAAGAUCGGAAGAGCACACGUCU

Variants of: B1
assay_comment: aptazyme ON/OFF ratio, guanine; higher = stronger switching; co-transcriptional cleavage with and without guanine
value_kind: aptazyme ON/OFF ratio

mutant_label="U7G U8G G9A U10C U11C C12A C13A" reported_value=1.19
mutant_label="U7C U8C G9C U10C C13A" reported_value=1.04
mutant_label="U7C U8G G9U U11G C12A C13U" reported_value=1.21
mutant_label="U7A U10A U11C C12U C13A" reported_value=1.07
mutant_label="U8A G9U U10G U11C C12A C13A" reported_value=1.09

Taken from the RNAGym collection of RNA variant scans (doi:10.1021/acssynbio.7b00057).
